Molecular target: T1, human IL-2Rγ expressed on cells (NK-92, Jurkat) (human) (UniProt P31785)
T1 sequence (looked up): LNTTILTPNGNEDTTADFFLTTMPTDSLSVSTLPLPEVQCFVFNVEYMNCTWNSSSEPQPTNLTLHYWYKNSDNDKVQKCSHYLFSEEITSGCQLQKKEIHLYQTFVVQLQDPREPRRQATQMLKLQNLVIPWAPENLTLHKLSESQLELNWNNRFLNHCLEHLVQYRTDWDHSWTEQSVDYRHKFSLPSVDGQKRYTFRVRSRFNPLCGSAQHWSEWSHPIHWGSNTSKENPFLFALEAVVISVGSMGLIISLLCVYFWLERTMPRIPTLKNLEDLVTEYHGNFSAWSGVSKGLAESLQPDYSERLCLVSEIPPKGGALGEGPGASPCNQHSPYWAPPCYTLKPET
Test: flow cytometry on Jurkat cells (endogenous human IL-2Rg), antibody 10 ug/ml
# Raw MFI listing for each entry below

>  <binder>
H4H12863P (antibody, human IgG4 S228P, kappa, V domains shown) VH: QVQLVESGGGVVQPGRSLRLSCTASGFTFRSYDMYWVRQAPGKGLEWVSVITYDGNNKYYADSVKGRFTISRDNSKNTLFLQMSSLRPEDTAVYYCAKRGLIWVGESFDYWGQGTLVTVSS VL: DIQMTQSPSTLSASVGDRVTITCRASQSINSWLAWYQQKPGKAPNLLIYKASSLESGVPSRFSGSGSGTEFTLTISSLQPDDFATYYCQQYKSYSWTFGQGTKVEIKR

>  <Raw MFI>
1170 MFI

$$$$
>  <binder>
H4H12900P (antibody, human IgG4 S228P, kappa, V domains shown) VH: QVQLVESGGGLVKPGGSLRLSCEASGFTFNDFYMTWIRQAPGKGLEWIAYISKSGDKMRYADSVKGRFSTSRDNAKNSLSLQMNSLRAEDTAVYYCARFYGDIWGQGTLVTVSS VL: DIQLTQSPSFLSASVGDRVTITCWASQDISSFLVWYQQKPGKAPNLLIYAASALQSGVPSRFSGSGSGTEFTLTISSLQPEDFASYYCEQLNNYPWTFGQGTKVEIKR

>  <Raw MFI>
110 MFI

$$$$
>  <binder>
H4H12874P (antibody, human IgG4 S228P, kappa, V domains shown) VH: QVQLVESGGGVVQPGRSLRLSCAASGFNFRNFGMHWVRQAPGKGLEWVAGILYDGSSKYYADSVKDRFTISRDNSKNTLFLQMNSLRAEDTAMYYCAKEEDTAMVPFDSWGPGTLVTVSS VL: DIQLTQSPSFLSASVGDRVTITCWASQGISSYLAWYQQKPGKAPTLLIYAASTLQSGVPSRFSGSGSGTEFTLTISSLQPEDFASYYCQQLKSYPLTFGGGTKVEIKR

>  <Raw MFI>
507 MFI

$$$$
